Field: pKd. Provide a value for each of the binders that follow.
Molecular target: T1, scCD3εγ
T1 chain 1: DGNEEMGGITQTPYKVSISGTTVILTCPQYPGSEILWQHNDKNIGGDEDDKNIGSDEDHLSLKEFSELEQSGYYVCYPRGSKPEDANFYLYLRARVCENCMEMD
T1 chain 2: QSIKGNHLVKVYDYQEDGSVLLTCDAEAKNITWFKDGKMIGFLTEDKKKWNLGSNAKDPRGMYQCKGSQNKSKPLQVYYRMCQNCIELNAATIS
Assay: SPR, bio-scCD3εγ coated on NAD chip, DARPin 333.33-4.11 nM
API: returns pKd as number; meaning -log10 of concentration in mol/L.

[ask] I'd like to know its pKd. The binder in question is 2-in-1 DARPin 25 (SEQ ID NO: 94) (designed binder, Family 2, from Parent nos 3 and 4; tag not specified) DLGKKLLQAARAGQLDEVRELLKAGADVNAKDSQGRTPLHLAAFAGHLEIVEVLLKAGADVNAKDHAGWTPLHLAAYAGHLEIVEVLVKAGADVNAKDTEGKTPLHIAAWFGHLEIVEVLLKAGADVNAKDKSGKTPLHLAARAGHLEIVEVLLKAGADVNAKDNSGQTPLHLAAWAGHLEIVEVLLKAGADVNAKNSRGWTPLHTAAQTGHLEIFEVLLKAGADVNAKNDKRVTPLHLAAALGHLEIVEVLLKAGADVNARDSWGTTPADLAAKYGHQDIAEVLQKAA
[reply] 8.39

[ask] Same question for CD3-specific binding domain (SEQ ID NO: 3) (designed binder, biotinylated when used as immobilized SPR ligand (site not stated), also called α-CD3 DARPin) DLGQKLLEAAWAGQDDEVRELLKAGADVNAKNSRGWTPLHTAAQTGHLEIFEVLLKAGADVNAKNDKRVTPLHLAAALGHLEIVEVLLKAGADVNARDSWGTTPADLAAKYGHQDIAEVLQKAA please.
[reply] 8.69

[ask] And what about the binder 2-in-1 DARPin 24 (SEQ ID NO: 93) (designed binder, Family 2, from Parent nos 3 and 4; tag not specified) DLGKKLLQAARAGQLDEVRELLKAGADVNAKDSQGRTPLHLAAFAGHLEIVEVLLKAGADVNAKDHAGWTPLHLAAYAGHLEIVEVLVKAGADVNAKDTEGKTPLHIAAWFGHLEIVEVLLKAGADVNAKDKSGKTPLHLAARAGHLEIVEVLLKAGADVNAKDNSGQTPLHEAAWAGHLEIVEVLLKAGADVNAKNSRGWTPLHTAAQTGHLEIFEVLLKAGADVNAKNDKRVTPLHLAAALGHLEIVEVLLKAGADVNARDSWGTTPADLAAKYGHQDIAEVLQKAA ?
[reply] 8.33

[ask] Can you handle 2-in-1 DARPin 23 (SEQ ID NO: 92) (designed binder, Family 2, from Parent nos 3 and 4; tag not specified) DLGKKLLQAARAGQLDEVRELLKAGADVNAKDSQGRTPLHLAAFAGHLEIVEVLLKAGADVNAKDHAGWTPLHLAAYAGHLEIVEVLVKAGADVNAKDTEGKTPLHIAAWFGHLEIVEVLLKAGADVNAKDKSGQTPLHLAAWAGHLEIVEVLLKAGADVNAKNSRGWTPLHTAAQTGHLEIFEVLLKAGADVNAKNDKRVTPLHLAAALGHLEIVEVLLKAGADVNARDSWGTTPADLAAKYGHQDIAEVLQKAA next?
[reply] 8.42
